Molecular target: CXCR4 (Homo sapiens)
Experiment: Calcium mobilization assay (FLIPR Tetra) in U87.CD4.CXCR4 cells
Assay type: cell-based
Details: read-out: IC50 Calcium signaling (CXCL12-induced)
Quantity Name: pIC50
Numbers only, as −log10 of the molar value.

Record `CC(C)=CCC[C@]1(C)C=Cc2c(O)c3c(c(CC=C(C)C)c2O1)O[C@]12C(=C[C@@H]4C[C@H]1C(C)(C)O[C@@]2(C/C=C(/C)C(=O)O)C4=O)C3=O` . Reported pIC50: 5.36

---

Biological target: CXCR4 (Homo sapiens, UniProt P61073)
Sequence (P61073 whole entry): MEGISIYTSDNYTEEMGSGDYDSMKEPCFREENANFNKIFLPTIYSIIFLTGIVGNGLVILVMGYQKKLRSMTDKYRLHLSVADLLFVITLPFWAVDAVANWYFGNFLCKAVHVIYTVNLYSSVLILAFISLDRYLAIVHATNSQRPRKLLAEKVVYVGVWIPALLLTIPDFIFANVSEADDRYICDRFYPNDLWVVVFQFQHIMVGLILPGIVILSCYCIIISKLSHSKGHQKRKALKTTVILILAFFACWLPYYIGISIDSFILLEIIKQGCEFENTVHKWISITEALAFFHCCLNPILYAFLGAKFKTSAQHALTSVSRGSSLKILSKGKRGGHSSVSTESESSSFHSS
Assay: CXCL12^AF647 binding assay on Jurkat cells
Details: read-out: IC50 CXCL12-CXCR4 binding interaction
Quantity Name: pIC50
Numbers only, as −log10 of the molar value.

CXCR4 (Homo sapiens, UniProt P61073) pIC50 of `CC(C)=CCC[C@]1(C)C=Cc2c(O)c3c(c(CC=C(C)C)c2O1)O[C@]12C(=C[C@@H]4C[C@H]1C(C)(C)O[C@@]2(C/C=C(/C)C(=O)O)C4=O)C3=O` is 5.15

---

Tested on: HIV-1 NL4-3 (X4)
Assay: microbe, parasite or virus in culture
Type: cell-based
Conditions: Human immunodeficiency virus 1, NL43, MT4, 96 h; MT-4 cells, four days post infection, MTS, mean ± SEM; read-out: IC50 HIV-1 (X4) NL4-3 replication, MT-4 cells
I'd be grateful if you could share measured pIC50 for these entries.
Answers are plain numbers, as −log10 of the molar value.

Smiles String	Assay System	pIC50
c1cc(CN2CCCNCCNCCCNCC2)ccc1CN1CCCNCCNCCCNCC1	HIV-1 NL4-3 (X4)	7.93

Let's switch to this molecule now.
HIV-1 NL4-3 (X4) pIC50 of `NCCCCN(Cc1nc2ccccc2[nH]1)[C@H]1CCCc2cccnc21` is 7.92

---

Biological target: CXCR4 (Homo sapiens, UniProt P61073)
Test: CXCR4 internalization assay in SUP-T1 cells
Type: cell-based
Set-up: CXCR4 receptors endogenously expressed on SUP-T1 cells; endogenous in cells; host or cells: SUP-T1 (ATCC)
Protocol: T-lymphoblastic SUP-T1 cells were washed twice in DPBS containing 2% FBS. Afterwards, cells were first incubated with the PE-labeled rat anti-human CXCR4 mAb (clone 1D9; 2 μg/ml in DPBS/2% FBS; BD Pharmingen) on ice for 45 minutes. […] Samples were immediately analyzed with the FACSCalibur flow cytometer (Becton Dickinson) whereby the measured fluorescence corresponds to the amount of […] CXCR4 receptors. Data were further analyzed with the FlowJo software.
Quantity Name: IC50

CXCR4 (Homo sapiens, UniProt P61073) IC50 of `CC(C)=CCC[C@]1(C)C=Cc2c(O)c3c(c(CC=C(C)C)c2O1)O[C@]12C(=C[C@@H]4C[C@H]1C(C)(C)O[C@@]2(C/C=C(/C)C(=O)O)C4=O)C3=O` is > 10 µM

---

Test system: HIV-1 NL4-3 (X4)
Experiment: microbe, parasite or virus in culture
Assay type: cell-based
Conditions: Human immunodeficiency virus 1, NL43, PBMC, 240 h; PHA-stimulated PBMCs, ten days post infection, p24 Ag ELISA, mean ± SEM; read-out: IC50 HIV-1 (X4) NL4-3 replication, PHA-stimulated PBMCs
I'd be grateful if you could share measured pIC50 for these entries.
One number for each entry, as −log10 of the molar value.

Take each entry in turn and give its pIC50.
1. c1cc(CN2CCCNCCNCCCNCC2)ccc1CN1CCCNCCNCCCNCC1
2. NCCCCN(Cc1nc2ccccc2[nH]1)[C@H]1CCCc2cccnc21

Response:
7.83
7.58

---

Test: in vitro
Format: cell-based
Conditions: human
Experimental: Freshly isolated peripheral blood mononuclear cells (PBMCs) were isolated out of buffy coats from healthy donors (Red Cross, Belgium). […] Jurkat cells (3x10^5 cells per well in culture medium) were incubated with serial dilutions of compound at room temperature (RT) for two hours. […] Absorbance at 490 nm was measured with the VersaMax ELISA Microplate Reader (Molecular Devices, Sunnyvale, CA, USA). […]
Quantity Name: CC50 at 10 days

Record CC(C)=CCC[C@]1(C)C=Cc2c(O)c3c(c(CC=C(C)C)c2O1)O[C@]12C(=C[C@@H]4C[C@H]1C(C)(C)O[C@@]2(C/C=C(/C)C(=O)O)C4=O)C3=O [gambogic acid] . Reported CC50 at 10 days: ~300 nM
